The reported measurements were obtained from patent US12129237B2.

Biological target: JNK1 (Homo sapiens, UniProt P45983)
Construct: purchased Carna Biosciences
Sequence (P45983 whole entry): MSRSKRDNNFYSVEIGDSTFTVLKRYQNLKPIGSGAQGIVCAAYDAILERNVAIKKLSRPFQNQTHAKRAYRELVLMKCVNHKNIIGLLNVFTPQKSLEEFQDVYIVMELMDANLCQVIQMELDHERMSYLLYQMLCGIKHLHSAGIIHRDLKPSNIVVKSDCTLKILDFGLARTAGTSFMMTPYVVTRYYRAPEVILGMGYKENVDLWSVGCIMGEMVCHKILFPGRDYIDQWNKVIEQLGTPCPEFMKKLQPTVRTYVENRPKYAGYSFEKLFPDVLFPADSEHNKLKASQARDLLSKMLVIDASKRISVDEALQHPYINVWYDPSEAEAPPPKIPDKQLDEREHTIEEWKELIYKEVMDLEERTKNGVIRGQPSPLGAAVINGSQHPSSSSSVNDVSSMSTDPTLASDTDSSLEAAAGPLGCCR
Assay: JNK1 biochemical assays (one or more of: time resolved fluorescence, Z'-LYTE Cascade, radioactive)
Conditions: tested in one or more of the JNK1 biochemical assays; read-out: Act. Level (JNK1 biochemical assay IC50 activity level)
# IC50 per record follows

Take a look at these entries with their results.
C[C@]1(O)CCC[C@@H](Nc2nc(NC3CCC(F)(F)CC3)ncc2C(N)=O)C1    < 200 nM
CC(C)CC(=O)N1CCC(Nc2nc(N[C@@H]3CC[C@@H](O)C3)ncc2C(N)=O)CC1    200 to 800 nM
C[C@H](Nc1ncc(C(N)=O)c(N[C@H]2CC[C@@H](N)CC2)n1)C1CCCCC1    < 200 nM
CCO[C@H]1CC[C@H](Nc2ncc(C(N)=O)c(N[C@@H]3CCCC[C@H](O)C3)n2)CC1    < 200 nM
CO[C@H]1CC[C@@H](Nc2nc(N[C@@H]3CC[C@@H](CO)C3)ncc2C(N)=O)CC1    < 200 nM

*Q* Form field - read-out: IC50; system: JNK1 (Homo sapiens, UniProt P45983); submitted item: "CCO[C@H]1CC[C@H](Nc2ncc(C(N)=O)c(N[C@H]3CCCOC3)n2)CC1"
*A* < 200 nM

*Q* Next record, please: "NC(=O)c1cnc(NC2CCOCC2)nc1N[C@H]1CC[C@@H](C(=O)N2CCCC2)CC1"
*A* 800 to 1000 nM

*Q* Next record, please: "NC(=O)c1cnc(N[C@H]2CC[C@H](O)CC2)nc1NC1CCC1"
*A* < 200 nM

* * *

Biological target: JNK1 (Homo sapiens, UniProt P45983)
Construct: purchased Carna Biosciences
Assay: JNK1 biochemical assays (one or more of: time resolved fluorescence, Z'-LYTE Cascade, radioactive)
Settings: one or more of the JNK1 biochemical assays; read-out: Act. Level (JNK1 IC50 activity level)
pIC50: −log10 of the molar value.
# pIC50 per record follows

CO[C@H]1CC[C@H](Nc2ncc(C(N)=O)c(NC(C)(C)CO)n2)CC1    > 6.70
CCC(C)(C)Nc1ncc(C(N)=O)c(N[C@@H]2CCCC[C@H](O)C2)n1    > 6.70
NC(=O)c1cnc(NC2CCC(F)(F)CC2)nc1N[C@@H]1CCC[C@@H]1CO    > 6.70

Turning now to a further record.
*Q* Item under review: "CO[C@H]1CC[C@H](Nc2ncc(C(N)=O)c(N[C@H](C)C3CCC3)n2)CC1" . Reported pIC50?
*A* 5.00 to 6.00

* * *

# pIC50 per record follows
Target: JNK1 (Homo sapiens)
Construct: purchased Carna Biosciences
Assay: JNK1 biochemical assays (one or more of: time resolved fluorescence, Z'-LYTE Cascade, radioactive)
Conditions: tested in one or more of the JNK1 biochemical assays; read-out: Act. Level (JNK1 biochemical assay IC50 activity level)
pIC50: −log10 of the molar value.

CCC(=O)N[C@H]1CC[C@@H](Nc2nc(NC3CCCC3)ncc2C(N)=O)CC1 [Example A-129]    6.10 to 6.70

*Q* Item under review: NC(=O)c1cnc(NC2CCCCC2)nc1N[C@H]1CC[C@@H](C(N)=O)CC1 [Example A-146] . Reported pIC50?
*A* > 6.70

*Q* Next record, please: CCO[C@H]1CC[C@H](Nc2ncc(C(N)=O)c(N[C@@H]3CCC[C@](C)(O)C3)n2)CC1 [Example A-157]
*A* > 6.70

*Q* Next record, please: CC(C)Nc1nc(N[C@H]2CC[C@H](C(=O)N(C)C)CC2)ncc1C(N)=O [Example A-10]
*A* > 6.70

*Q* Next record, please: NC(=O)c1cnc(NC2CCCCC2)nc1N[C@H]1CC[C@@H](O)CC1 [Example A-147]
*A* > 6.70

*Q* Next record, please: NC(=O)c1cnc(NC2CCC(F)(F)CC2)nc1N[C@@H]1CCC[C@H]1O [Example A-5]
*A* > 6.70

*Q* Next record, please: CO[C@H]1CC[C@H](Nc2ncc(C(N)=O)c(N[C@H]3CC[C@@H](N)CC3)n2)CC1 [Example A-120]
*A* > 6.70

*Q* Next record, please: CCO[C@H]1CC[C@@H](Nc2nc(NC3CCOCC3)ncc2C(N)=O)CC1 [Example A-115]
*A* > 6.70

*Q* Next record, please: NC[C@H]1CC[C@@H](Nc2nc(NC3CCCC3)ncc2C(N)=O)CC1 [Example A-131]
*A* > 6.70

* * *

Molecular target: JNK1 (Homo sapiens, UniProt P45983)
Construct: purchased Carna Biosciences
Assay: JNK1 biochemical assays (one or more of: time resolved fluorescence, Z'-LYTE Cascade, radioactive)
Settings: Table 2; JNK1 IC50 activity level; read-out: Act. Level
measurement-type: IC50

C[C@@H]1CC[C@@H](Nc2nc(N[C@H]3CCc4ncccc4C3)ncc2C(N)=O)C[C@H]1O    < 200 nM
Cc1ccccc1Nc1ncc(C(N)=O)c(Nc2ccccc2)n1    < 200 nM
COc1ccc(CCNc2ncc(C(N)=O)c(Nc3ccccc3)n2)cc1    200 to 800 nM
C[C@@H](Nc1ncc(C(N)=O)c(N[C@@H]2CCC[C@H](O)C2)n1)c1ccc(F)cc1    < 200 nM
CC1CCC(Nc2ncc(C(N)=O)c(Nc3ccccc3)n2)CC1 (stereo not drawn)    < 200 nM
COc1ccc(CNc2ncc(C(N)=O)c(Nc3ccccc3)n2)cc1OC    200 to 800 nM
C[C@@H]1CC[C@@H](Nc2nc(N[C@@H]3CCc4ncccc4C3)ncc2C(N)=O)C[C@H]1O    < 200 nM
NC(=O)c1cnc(NCc2cccnc2)nc1Nc1ccccc1    200 to 800 nM
CC(C)Nc1nc(N[C@@H]2CCc3ccccc3C2)ncc1C(N)=O    < 200 nM
CC(C)Nc1nc(N[C@@H]2CCc3ncccc3C2)ncc1C(N)=O    200 to 800 nM

*Q* Form field - read-out: IC50; system: JNK1 (Homo sapiens, UniProt P45983); submitted item: "NC(=O)c1cnc(N[C@H]2CCc3cnccc3C2)nc1N[C@@H]1CCC[C@H](O)C1"
*A* < 200 nM

*Q* Next record, please: "COc1cc(Nc2ncc(C(N)=O)c(Nc3ccccc3)n2)cc(OC)c1"
*A* < 200 nM

*Q* Next record, please: "CCOC(=O)N1CCC(Nc2ncc(C(N)=O)c(Nc3ccccc3)n2)CC1"
*A* < 200 nM

*Q* Next record, please: "COc1cccc(CNc2ncc(C(N)=O)c(Nc3ccccc3)n2)c1OC"
*A* 200 to 800 nM

*Q* Next record, please: "NC(=O)c1cnc(N[C@@H]2CCCc3ccccc32)nc1N[C@@H]1CCC[C@H](O)C1"
*A* < 200 nM

*Q* Next record, please: "NC(=O)c1cnc(Nc2ccccc2Oc2ccccc2)nc1Nc1ccccc1"
*A* < 200 nM

*Q* Next record, please: CCC(Nc1ncc(C(N)=O)c(Nc2ccccc2)n1)c1ccccc1 (stereo not drawn)
*A* 200 to 800 nM

*Q* Next record, please: "COc1ccc(-c2ccccc2)cc1Nc1ncc(C(N)=O)c(Nc2ccccc2)n1"
*A* 1000 to 10000 nM

* * *

Molecular target: JNK1 (Homo sapiens)
Construct: purchased Carna Biosciences
Assay: JNK1 biochemical assays (one or more of: time resolved fluorescence, Z'-LYTE Cascade, radioactive)
Conditions: Table 2; JNK1 IC50 activity level; read-out: Act. Level
pIC50: −log10 of the molar value.
measurement-type: pIC50

Take a look at these entries with their results.
COc1ccc(CCNc2ncc(C(N)=O)c(Nc3ccccc3)n2)cc1OC    6.10 to 6.70
CN1CCCC1CCNc1ncc(C(N)=O)c(Nc2ccccc2)n1 (stereo not drawn)    5.00 to 6.00
COc1ccc(NC(C)=O)cc1Nc1ncc(C(N)=O)c(Nc2ccccc2)n1    6.10 to 6.70
N#Cc1cnc(NC2CCCCC2)nc1Nc1ccccc1    5.00 to 6.00

*Q* Form field - read-out: pIC50; system: JNK1 (Homo sapiens); submitted item: "Cc1ccnc(Nc2ncc(C(N)=O)c(Nc3ccccc3)n2)n1"
*A* 5.00 to 6.00

*Q* Next record, please: "CCOc1ccccc1CNc1ncc(C(N)=O)c(Nc2ccccc2)n1"
*A* 6.00 to 6.10

*Q* Next record, please: NC(=O)c1cnc(NC2CCc3ccccc32)nc1Nc1ccccc1 (stereo not drawn)
*A* 6.10 to 6.70

*Q* Next record, please: "CC(=O)N[C@H]1CC[C@H](Nc2ncc(C(N)=O)c(Nc3ccccc3)n2)CC1"
*A* > 6.70

*Q* Next record, please: "NC(=O)c1cnc(NCCc2cccs2)nc1Nc1ccccc1"
*A* 6.10 to 6.70

* * *

Target: JNK1 (Homo sapiens)
Construct: purchased Carna Biosciences
Assay: JNK1 biochemical assays (one or more of: time resolved fluorescence, Z'-LYTE Cascade, radioactive)
Settings: Table 3; JNK1 IC50 activity level; read-out: Act. Level
measurement-type: IC50

Take a look at these entries with their results.
CO[C@H]1CC[C@H](Nc2ncc(C#N)c(N[C@@H]3CC[C@@H](C)C(O)C3)n2)CC1 (some centres unmarked)    < 200 nM
N#Cc1cnc(N[C@H]2CC[C@H](O)CC2)nc1N[C@@H]1CCCC[C@@H]1O    200 to 800 nM
C[C@]1(O)CCC[C@@H](Nc2nc(N[C@H]3CC[C@H](OC(F)F)CC3)ncc2C#N)C1    < 200 nM
CN(C)C(=O)[C@H]1CC[C@H](Nc2ncc(C#N)c(N[C@@H]3CCCOC3)n2)CC1    200 to 800 nM
CO[C@H]1CC[C@H](Nc2ncc(C#N)c(N[C@@H]3CCCC[C@@](C)(O)C3)n2)CC1    < 200 nM
CCO[C@H]1CC[C@H](Nc2ncc(C#N)c(NC3CCCCC3)n2)CC1    200 to 800 nM

*Q* Item under review: "CO[C@H]1CC[C@H](Nc2ncc(C#N)c(N[C@H]3CCCC[C@@](C)(O)C3)n2)CC1" . Reported IC50?
*A* < 200 nM

*Q* Next record, please: "CCO[C@H]1CC[C@H](Nc2ncc(C#N)c(N[C@H]3CCC[C@@H](O)C3)n2)CC1"
*A* 200 to 800 nM
